Attribution: the NIST ThermoML archive (doi:10.1021/acs.jced.5b00658)

- RECORDED_CONDITIONS: 298.15 K; 101.33 kPa; Liquid; Vibrating tube method
QUANTITY_KIND: mass density (kg/m3)
The reply should be a number in kg/m3, with the unit left off.

Below: 3 compounds and their reported mass density.
{"columns": ["COMPOUND_STRUCTURE", "UNIT_TAG", "mass density"],
 "data": [
  ["CCCn1cc[n+](C)c1.O=S(=O)([N-]S(=O)(=O)C(F)(F)F)C(F)(F)F", "kg/m3", 1475.6],
  ["CC(C)[n+]1ccn(C)c1.O=S(=O)([N-]S(=O)(=O)C(F)(F)F)C(F)(F)F", "kg/m3", 1477.6],
  ["CCCCCCCn1cc[n+](C)c1.O=S(=O)([N-]S(=O)(=O)C(F)(F)F)C(F)(F)F", "kg/m3", 1345.4]
]}

-- ask Please give the measured mass density for this compound: `CCCCCC[n+]1ccn(C)c1.O=S(=O)([N-]S(=O)(=O)C(F)(F)F)C(F)(F)F`
-- reply 1372.7

-- ask Please give the measured mass density for this compound: `CC(C)Cn1cc[n+](C)c1.O=S(=O)([N-]S(=O)(=O)C(F)(F)F)C(F)(F)F`
-- reply 1436.3

-- ask Please give the measured mass density for this compound: `CCCCCn1cc[n+](C)c1.O=S(=O)([N-]S(=O)(=O)C(F)(F)F)C(F)(F)F`
-- reply 1403.6

-- ask Please give the measured mass density for this compound: `CC(C)CCCn1cc[n+](C)c1.O=S(=O)([N-]S(=O)(=O)C(F)(F)F)C(F)(F)F`
-- reply 1372.4

-- ask Please give the measured mass density for this compound: `CC(C)CCn1cc[n+](C)c1.O=S(=O)([N-]S(=O)(=O)C(F)(F)F)C(F)(F)F`
-- reply 1403.3

-- ask Please give the measured mass density for this compound: `CCCC[n+]1ccn(C)c1.O=S(=O)([N-]S(=O)(=O)C(F)(F)F)C(F)(F)F`
-- reply 1436.9

-- ask Please give the measured mass density for this compound: `CC(C)CCCCn1cc[n+](C)c1.O=S(=O)([N-]S(=O)(=O)C(F)(F)F)C(F)(F)F`
-- reply 1344.2

---

- RECORDED_CONDITIONS: Glass; DSC
# Lookup of reported Glass transition temperature keyed by entry
The reply should be a number in °C, with the unit left off.

{"columns": ["COMPOUND_STRUCTURE", "UNIT_TAG", "Glass transition temperature"],
 "data": [
  ["CC(C)CCn1cc[n+](C)c1.O=S(=O)([N-]S(=O)(=O)C(F)(F)F)C(F)(F)F", "°C", -83.7],
  ["CC(C)CCCn1cc[n+](C)c1.O=S(=O)([N-]S(=O)(=O)C(F)(F)F)C(F)(F)F", "°C", -81],
  ["CC(C)[n+]1ccn(C)c1.O=S(=O)([N-]S(=O)(=O)C(F)(F)F)C(F)(F)F", "°C", -83],
  ["CCCC[n+]1ccn(C)c1.O=S(=O)([N-]S(=O)(=O)C(F)(F)F)C(F)(F)F", "°C", -88.9],
  ["CCCCCCCn1cc[n+](C)c1.O=S(=O)([N-]S(=O)(=O)C(F)(F)F)C(F)(F)F", "°C", -85.4],
  ["CC(C)Cn1cc[n+](C)c1.O=S(=O)([N-]S(=O)(=O)C(F)(F)F)C(F)(F)F", "°C", -81.2],
  ["CCCCCC[n+]1ccn(C)c1.O=S(=O)([N-]S(=O)(=O)C(F)(F)F)C(F)(F)F", "°C", -85.7]
]}

Here is another compound to look at.
-- ask Please give the measured Glass transition temperature for this compound: `CC(C)CCCCn1cc[n+](C)c1.O=S(=O)([N-]S(=O)(=O)C(F)(F)F)C(F)(F)F`
-- reply -81.3

---

- RECORDED_CONDITIONS: 308.15 K; 101.33 kPa; Liquid; Vibrating tube method
QUANTITY_KIND: mass density (kg/m3)
The reply should be a number in kg/m3, with the unit left off.

Below: 6 compounds and their reported mass density.
{"columns": ["COMPOUND_STRUCTURE", "mass density (kg/m3)"],
 "data": [
  ["CCCCCCCn1cc[n+](C)c1.O=S(=O)([N-]S(=O)(=O)C(F)(F)F)C(F)(F)F", 1336.4],
  ["CC(C)CCCCn1cc[n+](C)c1.O=S(=O)([N-]S(=O)(=O)C(F)(F)F)C(F)(F)F", 1335.2],
  ["CC(C)CCCn1cc[n+](C)c1.O=S(=O)([N-]S(=O)(=O)C(F)(F)F)C(F)(F)F", 1363.3],
  ["CCCCCn1cc[n+](C)c1.O=S(=O)([N-]S(=O)(=O)C(F)(F)F)C(F)(F)F", 1393.9],
  ["CC(C)CCn1cc[n+](C)c1.O=S(=O)([N-]S(=O)(=O)C(F)(F)F)C(F)(F)F", 1393.7],
  ["CC(C)[n+]1ccn(C)c1.O=S(=O)([N-]S(=O)(=O)C(F)(F)F)C(F)(F)F", 1467.8]
]}

-- ask Please give the measured mass density for this compound: `CCCn1cc[n+](C)c1.O=S(=O)([N-]S(=O)(=O)C(F)(F)F)C(F)(F)F`
-- reply 1465.8

-- ask Please give the measured mass density for this compound: `CCCCCC[n+]1ccn(C)c1.O=S(=O)([N-]S(=O)(=O)C(F)(F)F)C(F)(F)F`
-- reply 1363.6

-- ask Please give the measured mass density for this compound: `CC(C)Cn1cc[n+](C)c1.O=S(=O)([N-]S(=O)(=O)C(F)(F)F)C(F)(F)F`
-- reply 1426.6

-- ask Please give the measured mass density for this compound: `CCCC[n+]1ccn(C)c1.O=S(=O)([N-]S(=O)(=O)C(F)(F)F)C(F)(F)F`
-- reply 1427.1

---

- RECORDED_CONDITIONS: 293.15 K; 101.33 kPa; Liquid; Vibrating tube method
QUANTITY_KIND: mass density (kg/m3)
The reply should be a number in kg/m3, with the unit left off.

Below: 3 molecules and their reported mass density.
{"columns": ["COMPOUND_STRUCTURE", "UNIT_TAG", "OBSERVED_MEASUREMENT"],
 "data": [
  ["CCCCCC[n+]1ccn(C)c1.O=S(=O)([N-]S(=O)(=O)C(F)(F)F)C(F)(F)F", "kg/m3", 1377.2],
  ["CC(C)CCn1cc[n+](C)c1.O=S(=O)([N-]S(=O)(=O)C(F)(F)F)C(F)(F)F", "kg/m3", 1408.1],
  ["CC(C)CCCn1cc[n+](C)c1.O=S(=O)([N-]S(=O)(=O)C(F)(F)F)C(F)(F)F", "kg/m3", 1377]
]}

-- ask Please give the measured mass density for this molecule: `CCCCCCCn1cc[n+](C)c1.O=S(=O)([N-]S(=O)(=O)C(F)(F)F)C(F)(F)F`
-- reply 1349.8

-- ask Please give the measured mass density for this molecule: `CCCCCn1cc[n+](C)c1.O=S(=O)([N-]S(=O)(=O)C(F)(F)F)C(F)(F)F`
-- reply 1408.4

-- ask Please give the measured mass density for this molecule: `CCCn1cc[n+](C)c1.O=S(=O)([N-]S(=O)(=O)C(F)(F)F)C(F)(F)F`
-- reply 1480.6

---

- RECORDED_CONDITIONS: 288.15 K; 101.33 kPa; Liquid; Vibrating tube method
QUANTITY_KIND: mass density (kg/m3)
The reply should be a number in kg/m3, with the unit left off.

Below: 9 molecules and their reported mass density.
{"columns": ["COMPOUND_STRUCTURE", "UNIT_TAG", "mass density"],
 "data": [
  ["CC(C)CCn1cc[n+](C)c1.O=S(=O)([N-]S(=O)(=O)C(F)(F)F)C(F)(F)F", "kg/m3", 1412.7],
  ["CCCC[n+]1ccn(C)c1.O=S(=O)([N-]S(=O)(=O)C(F)(F)F)C(F)(F)F", "kg/m3", 1446.5],
  ["CCCCCn1cc[n+](C)c1.O=S(=O)([N-]S(=O)(=O)C(F)(F)F)C(F)(F)F", "kg/m3", 1412.9],
  ["CCCCCCCn1cc[n+](C)c1.O=S(=O)([N-]S(=O)(=O)C(F)(F)F)C(F)(F)F", "kg/m3", 1354.1],
  ["CCCn1cc[n+](C)c1.O=S(=O)([N-]S(=O)(=O)C(F)(F)F)C(F)(F)F", "kg/m3", 1485.2],
  ["CC(C)CCCn1cc[n+](C)c1.O=S(=O)([N-]S(=O)(=O)C(F)(F)F)C(F)(F)F", "kg/m3", 1381.3],
  ["CC(C)CCCCn1cc[n+](C)c1.O=S(=O)([N-]S(=O)(=O)C(F)(F)F)C(F)(F)F", "kg/m3", 1353],
  ["CCCCCC[n+]1ccn(C)c1.O=S(=O)([N-]S(=O)(=O)C(F)(F)F)C(F)(F)F", "kg/m3", 1381.5],
  ["CC(C)[n+]1ccn(C)c1.O=S(=O)([N-]S(=O)(=O)C(F)(F)F)C(F)(F)F", "kg/m3", 1487.2]
]}

-- ask Please give the measured mass density for this molecule: `CC(C)Cn1cc[n+](C)c1.O=S(=O)([N-]S(=O)(=O)C(F)(F)F)C(F)(F)F`
-- reply 1445.6
